These data points were gathered from ChEMBL document CHEMBL1201862.

# Test system: HOP-92
# method-notes: NCI tumour cell line growth inhibition, 48 h
Calls of active or inactive are those of the source. Rule as the data show it: active = GI50 up to about 1.1 µM and inactive = higher.
measured-parameter: GI50

CC(=N/NC(=S)N1CCCCC1)/C(C)=N\NC(=S)N1CCCCC1 | 1.48 µM (inactive)

Hi there! I need GI50 for each item below, if you can.
1. C1CSC(=[N+]2CC[N+](=C3SCCS3)CC2)S1
2. O=C(O)Cc1ccc2c(c1O)C(=O)c1c(ccc(CC(=O)O)c1O)C2=O
3. O=C1[C@H](O)[C@@H]2CCC[C@@]23CCCN13

1. 45.4 µM (inactive)
2. > 100 µM (inactive)
3. > 100 µM (inactive)

Hi there! I need GI50 for each item below, if you can.
1. CC[C@@H]1CC[C@@H]2[C@H](CC[C@]3(C)[C@@H](OS(=O)(=O)c4ccc(C)cc4)CC[C@@H]23)[C@H]1COS(=O)(=O)c1ccc(C)cc1
2. COc1c2c(cc3c1C1(O)Cc4ccc5c(c4C[N+]1(C)CC3)OCO5)OCO2 (stereo not given)
3. O=C(O)c1ccccc1C1c2ccccc2Oc2ccccc21
4. CC(C)(C)C1C=C(Sc2ccccc2)C(=O)O1 (stereo not given)
5. CCOC(=O)C1C(c2ccc(OC)cc2)c2c(n[nH]c2O)CC1(O)OCC (stereo not given)
6. CC(=O)Nc1ccc(SC#N)c2c(NC(C)=O)cccc12

1. > 100 µM (inactive)
2. > 100 µM (inactive)
3. 19.1 µM (inactive)
4. 29.2 µM (inactive)
5. > 100 µM (inactive)
6. 50.7 µM (inactive)
